FYI, the data here is from PubChem BioAssay (Tox21).

Method Summary: Caspase-3/7 induction in CHO-K1 cells by small molecules, qHTS cell viability counter screen (AID 1346979); also: nearly all actives have a fitted effect of over 35% in size
Conditions: CellTiter-Fluor fluorescence, 17 h; series mostly up to 92.4 µM
Results filed as inconclusive are left out. Activity calls are given as the source filed them. Calls follow the shape of the dose curve; as a rule, active = well fitted cell-killing curve with a large enough effect in the repeat runs; inconclusive = weak or mixed curves, or effect the other way; inactive = no such curve, though single readings can be large or run the other way.
The reply should be one of these categories: active, inactive

## Task Query: recorded result category for `C/C=C/c1ccc(OCC)c(O)c1` in this test
## Result inactive

## Task Query: recorded result category for `CC(=O)C1=C(C)[C@@H]2C[C@@]3(C1)[C@H](C)CC[C@H]3C2(C)C` in this test
## Result inactive

## Task Query: recorded result category for `c1ccc2c(c1)-c1cccc3c1c-2cc1ccccc13` in this test
## Result active

## Task Query: recorded result category for `OCC(CO)N[C@H]1C[C@](O)(CO)[C@@H](O)[C@H](O)[C@H]1O` in this test
## Result inactive

## Task Query: recorded result category for `O=S(=O)(O)c1ccc2nc(-c3ccccc3)[nH]c2c1` in this test
## Result inactive

## Task Query: recorded result category for `CC(N)=O` in this test
## Result inactive

## Task Query: recorded result category for c1ccc2c(c1)CCCC2C1=NCCN1 (centres undefined) in this test
## Result inactive

## Task Query: recorded result category for `CC(=O)CC(=O)Nc1ccc2[nH]c(=O)[nH]c2c1` in this test
## Result inactive

## Task Query: recorded result category for `CCCN[C@H]1CCc2nc(N)sc2C1` in this test
## Result inactive

## Task Query: recorded result category for `Nc1ccc(O)cc1` in this test
## Result active

## Task Query: recorded result category for `CCN(CC)CCOc1ccc(/C(=C(\Cl)c2ccccc2)c2ccccc2)cc1` in this test
## Result active

## Task Query: recorded result category for `Cc1ccnc2c1NC(=O)c1cccnc1N2C1CC1` in this test
## Result inactive

## Task Query: recorded result category for CCn1cc(C(=O)O)c(=O)c2cc(F)c(N3CCNC(C)C3)c(F)c21 (centres undefined) in this test
## Result inactive

## Task Query: recorded result category for `CC(=O)O[C@]1(C(C)=O)CC[C@H]2[C@@H]3C[C@H](C)C4=CC(=O)CC[C@]4(C)[C@H]3CC[C@@]21C` in this test
## Result inactive

## Task Query: recorded result category for `COc1ccc(Cc2cnc(N)nc2N)cc1OC` in this test
## Result inactive

## Task Query: recorded result category for C#CC(C)(CC)OC(=O)c1ccccc1C(=O)O (centres undefined) in this test
## Result inactive

## Task Query: recorded result category for `NNCCc1ccccc1` in this test
## Result inactive

## Task Query: recorded result category for `Cc1cc(OCCOCC[N+](C)(C)Cc2ccccc2)ccc1C(C)(C)CC(C)(C)C` in this test
## Result active

## Task Query: recorded result category for C=C(C)C1CC=C(C)C(OC(C)=O)C1 (centres undefined) in this test
## Result inactive
